experimental.target: full-length RORγt in Jurkat cells (Homo sapiens (Human), UniProt P51449)
Sequence (P51449 other isoform, or with tags, fused parts or gaps): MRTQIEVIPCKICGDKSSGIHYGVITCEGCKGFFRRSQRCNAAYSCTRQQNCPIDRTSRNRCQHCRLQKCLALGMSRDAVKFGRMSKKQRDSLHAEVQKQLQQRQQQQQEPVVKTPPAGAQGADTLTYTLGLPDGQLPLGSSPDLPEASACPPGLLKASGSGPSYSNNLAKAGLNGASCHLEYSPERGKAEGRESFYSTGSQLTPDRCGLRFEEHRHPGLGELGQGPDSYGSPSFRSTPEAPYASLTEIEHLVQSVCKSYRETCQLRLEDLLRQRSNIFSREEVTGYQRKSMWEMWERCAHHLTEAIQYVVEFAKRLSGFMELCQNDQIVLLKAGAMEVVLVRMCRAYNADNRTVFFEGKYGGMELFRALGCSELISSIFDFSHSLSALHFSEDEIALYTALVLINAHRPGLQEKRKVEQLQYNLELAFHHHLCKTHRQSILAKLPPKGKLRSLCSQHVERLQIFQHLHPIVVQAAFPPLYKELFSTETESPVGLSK
assay.name: RORγt 5xRORE Assay in Jurkat Cells (Assay 2)
Format: cell-based
conditions: Nanoluc luciferase reporter, 16-18 hrs, Table 9, read-out: RORγt5X IC50 Range*
experimental.readout: IC50

CCS(=O)(=O)c1ccc(CC(=O)Nc2nc3c(s2)CN(C[C@H]2CC[C@@H](C(F)(F)F)N(C4CC4)C2)[C@H]3C(C)C)cc1 (single isomer, unassigned) ... > 1000 nM
CCS(=O)(=O)c1ccc(CNC(=O)c2nc3c(s2)CN(C[C@H]2CN(C(=O)OC(C)(C)C)CCO2)[C@H]3C(C)C)cc1 (relative stereo) ... 100 to 1000 nM
CCS(=O)(=O)c1ccc(CC(=O)Nc2nc3c(s2)CN(C[C@H]2CC[C@@H](C(F)(F)F)O2)[C@H]3C(C)C)nc1 (single isomer, unassigned) ... > 1000 nM
CC(C)[C@@H]1c2nc(NC(=O)Cc3ccc(S(C)(=O)=O)cc3)sc2CN1Cc1cccc(F)c1 ... > 1000 nM
CC(C)[C@H]1c2nc(NC(=O)Cc3ccc(S(N)(=O)=O)cc3)sc2CN1Cc1ccc(C(F)(F)F)cc1 ... < 100 nM
CCS(=O)(=O)c1ccc(CC(=O)Nc2nc3c(s2)CN(Cc2ccc(C(N)=O)cc2)[C@H]3C(C)C)cc1 ... < 100 nM
CC(C)[C@H]1c2nc(NC(=O)Cc3ccc(C#N)cc3)sc2CN1Cc1ccc(C#N)c(OC(F)F)c1 ... 100 to 1000 nM
